meta.source: patent US9695155B2

System: corn
assay.text: Test A postemergence
Assay type: in vivo, Zea mays
settings: 500 g ai/ha, 0 to 100 scale, 0 no effect, 100 complete control
Would you mind labelling by Plant response rating, Corn? At or over 20 is satisfied, under is not satisfied.

FC(F)(F)c1cnn(-c2ccccc2Oc2ncc(Cl)cn2)c1 satisfied

Q: Would you say Cc1cnn(-c2ccccc2Oc2ncc(Cl)cn2)c1 shows Plant response rating, Corn at minimum 20?
A: satisfied

Q: For this compound, is measured Plant response rating, Corn 20 or higher? Oc1cccc(Oc2ncc(Cl)cn2)c1-n1cc(Br)cn1
A: not satisfied

Q: Has FC(F)(F)c1ccn(-c2ccccc2Oc2ncc(Br)cn2)n1 a recorded Plant response rating, Corn greater than or equal to 20?
A: not satisfied

Q: In plain terms: is recorded Plant response rating, Corn at least 20 for CC(C)(C)c1cnn(-c2c(C#N)cccc2Oc2ncc(Cl)cn2)c1 ?
A: not satisfied

Q: Does the reported Plant response rating, Corn for Cc1ccc(Oc2ncc(Cl)cn2)c(-n2cc(Br)cn2)c1 fall at or above the 20 mark?
A: not satisfied
